Hi there, I'd appreciate the recorded IC50 for every entry that follows.
Lab book: enter the figure in nM, no units written.

C#CCNC(=O)[C@@H]1O[C@@H]2O[C@H]1C(=O)N(Cc1ccccc1)[C@H]2Cc1ccccc1 tested on Protease (Human immunodeficiency virus 1) gave IC50: 700

C[C@@H](CO)NC(=O)[C@@H]1O[C@H]2CN(Cc3ccccc3)C(=O)[C@@H]1O2 tested on Protease (Human immunodeficiency virus 1) gave IC50: 1500

O=C([C@@H]1O[C@@H]2O[C@H]1C(=O)N(Cc1ccccc1)[C@H]2Cc1ccccc1)N1CCN(CCO)CC1 tested on Protease (Human immunodeficiency virus 1) gave IC50: 5600
